Target: BIKE (Homo sapiens, UniProt Q9NSY1)
Construct: gene BMP2K; catalytic domain-containing construct
Sequence (Q9NSY1 whole entry, the tested form may be a part): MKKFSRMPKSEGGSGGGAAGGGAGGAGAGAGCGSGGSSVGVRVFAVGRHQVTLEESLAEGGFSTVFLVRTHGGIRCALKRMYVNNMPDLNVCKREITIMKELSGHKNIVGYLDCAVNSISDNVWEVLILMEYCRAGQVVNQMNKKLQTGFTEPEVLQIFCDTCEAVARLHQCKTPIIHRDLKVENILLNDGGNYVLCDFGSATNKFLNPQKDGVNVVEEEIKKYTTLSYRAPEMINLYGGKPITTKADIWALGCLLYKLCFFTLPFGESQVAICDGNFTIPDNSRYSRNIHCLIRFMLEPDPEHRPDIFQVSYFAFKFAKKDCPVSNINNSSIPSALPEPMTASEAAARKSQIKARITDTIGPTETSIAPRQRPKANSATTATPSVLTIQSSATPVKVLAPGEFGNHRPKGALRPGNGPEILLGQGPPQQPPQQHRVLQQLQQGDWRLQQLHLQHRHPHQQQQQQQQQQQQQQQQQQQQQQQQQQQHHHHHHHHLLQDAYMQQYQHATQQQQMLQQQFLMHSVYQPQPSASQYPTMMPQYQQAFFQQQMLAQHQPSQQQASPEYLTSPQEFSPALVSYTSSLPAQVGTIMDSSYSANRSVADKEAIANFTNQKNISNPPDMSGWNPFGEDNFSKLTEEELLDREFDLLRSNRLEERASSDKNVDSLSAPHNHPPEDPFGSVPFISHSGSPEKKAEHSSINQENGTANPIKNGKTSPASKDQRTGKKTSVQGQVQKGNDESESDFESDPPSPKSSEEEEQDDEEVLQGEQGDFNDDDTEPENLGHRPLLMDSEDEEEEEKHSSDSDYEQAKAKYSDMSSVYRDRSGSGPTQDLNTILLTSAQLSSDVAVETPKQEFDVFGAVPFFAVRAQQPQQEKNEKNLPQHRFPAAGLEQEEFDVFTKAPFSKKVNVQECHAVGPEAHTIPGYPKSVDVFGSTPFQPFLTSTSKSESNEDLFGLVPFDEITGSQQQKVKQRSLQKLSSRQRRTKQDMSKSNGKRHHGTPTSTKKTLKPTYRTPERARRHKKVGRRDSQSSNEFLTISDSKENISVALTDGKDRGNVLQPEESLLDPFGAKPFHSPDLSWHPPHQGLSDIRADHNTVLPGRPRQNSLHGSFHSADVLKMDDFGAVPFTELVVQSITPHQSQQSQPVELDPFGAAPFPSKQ
Experiment: biochemical
Set-up: Thermal shift assay (DSF, SYPRO Orange), 2 uM kinase domain, mean delta Tm of triplicates versus DMSO
Settings: read-out: BIKE
Method: All measurements were performed in triplicate and mean values were reported for all compounds (Table S1). […] However, NAKs are often omitted from selectivity panels, including commercial screens.
reported-metric: ΔTm at 12.5 µM (°C)

compound	ΔTm at 12.5 µM (°C)
CC(=O)c1c(C)c2cnc(Nc3ccc(N4CCNCC4)cn3)nc2n(C2CCCC2)c1=O [Palbociclib]	5.02

1: Cc1cc(Nc2nc(N[C@@H](C)c3ncc(F)cn3)ncc2Cl)[nH]n1 [AZD1480]
2: CN1CCC(COc2cnc(-c3cccc(Cn4nc(-c5cccc(C#N)c5)ccc4=O)c3)nc2)CC1 [EMD1214063]
3: CC(C)(C)c1nc(-c2cccc(NS(=O)(=O)c3c(F)cccc3F)c2F)c(-c2ccnc(N)n2)s1 [Dabrafenib]
With regard to ΔTm at 12.5 µM, arrange the entries in ascending order, please. Hello, could you send the labels back in the order asked? Thank you.
2, 3, 1

---

molecular target: MPSK1 (Homo sapiens, UniProt O75716); construct: gene STK16; catalytic domain-containing construct; test: biochemical; set-up: Thermal shift assay (DSF, SYPRO Orange), 2 uM kinase domain, mean delta Tm of triplicates versus DMSO; conditions: read-out: MPSK1
Sequence (O75716 whole entry, the tested form may be a part): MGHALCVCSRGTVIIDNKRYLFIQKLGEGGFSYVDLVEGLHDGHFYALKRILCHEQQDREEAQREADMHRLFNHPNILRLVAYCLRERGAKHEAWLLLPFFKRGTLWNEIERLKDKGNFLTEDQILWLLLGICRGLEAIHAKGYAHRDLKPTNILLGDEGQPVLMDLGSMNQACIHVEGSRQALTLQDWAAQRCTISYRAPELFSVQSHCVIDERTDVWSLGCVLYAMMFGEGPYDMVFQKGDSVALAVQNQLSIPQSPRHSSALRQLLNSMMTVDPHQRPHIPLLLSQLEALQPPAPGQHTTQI
reported-metric: ΔTm at 12.5 µM (°C)

A selection of reference data follows.
compound	unit-info	ΔTm at 12.5 µM
CC1(COc2ccc3c(c2)ncn3-c2ccc3cccc(N4CCC(N)CC4)c3n2)COC1	°C	4.1
Cc1ccc(NC(=O)c2ccc(CN3CCN(C)CC3)cc2)cc1Nc1nc(-c2cccnc2)cs1	°C	0.99
CC[C@H](Nc1ncnc2[nH]cnc12)c1nc2cccc(F)c2c(=O)n1-c1ccccc1	°C	1.52
CCc1cncnc1N1CCN(Cc2nc3ccc(C(F)(F)F)cc3[nH]2)CC1	°C	1.04
COc1cccc2cc(-c3nc([C@H]4CC[C@H](C(=O)O)CC4)n4ncnc(N)c34)[nH]c12	°C	0.92
CC(C)(C)c1cc(NC(=O)Nc2ccc(-c3cn4c(n3)sc3cc(OCCN5CCOCC5)ccc34)cc2)no1	°C	0.333

A: Cc1[nH]c(/C=C2\C(=O)Nc3ccccc32)c(C)c1CCC(=O)O [Orantinib]
B: O=C(NC[C@H](O)CO)c1ccncc1Nc1ccc(I)cc1F
Dear colleague, could you let me know whether A or B has the lower recorded ΔTm at 12.5 µM? Thanks. Respond using the label that marks the chosen record.
B
(B: 0.313 °C, A: 5.87 °C)

---

molecular target: AAK1 (Homo sapiens, UniProt Q2M2I8); assay: biochemical; design: kinase domain; Thermal shift assay (DSF, SYPRO Orange), 2 uM kinase domain, mean delta Tm of triplicates versus DMSO; conditions: read-out: AAK1
Sequence (Q2M2I8 27-365 limits assumed): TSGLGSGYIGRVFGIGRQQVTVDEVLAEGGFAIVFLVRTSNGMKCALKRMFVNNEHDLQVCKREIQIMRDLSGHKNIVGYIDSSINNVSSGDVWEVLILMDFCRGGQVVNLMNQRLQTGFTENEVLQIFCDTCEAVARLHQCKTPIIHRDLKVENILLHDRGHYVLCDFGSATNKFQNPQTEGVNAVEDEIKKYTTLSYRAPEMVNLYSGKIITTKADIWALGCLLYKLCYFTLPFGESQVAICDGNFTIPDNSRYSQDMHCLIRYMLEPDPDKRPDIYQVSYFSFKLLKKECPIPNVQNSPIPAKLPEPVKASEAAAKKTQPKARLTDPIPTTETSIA
reported-metric: ΔTm at 12.5 µM (°C)

molecule	val
CCc1cc(Nc2nccc(-c3c(-c4ccc(OC)c(C(=O)Nc5c(F)cccc5F)c4)nc4ccccn34)n2)c(OC)cc1N1CCC(N2CCN(S(C)(=O)=O)CC2)CC1 [GSK1904529A]	-0.16
CCn1c(=O)c(-c2cc[nH]n2)cc2c(C)nc(N)nc21	0.657
COc1cc2c(N3CCN(C(=O)Nc4ccc(OC(C)C)cc4)CC3)ncnc2cc1OCCCN1CCCCC1	0.57
Oc1c2ccccc2c2c3c(cccc13)N=N2	6.88
CS(=O)(=O)N1CCN(Cc2cc3nc(-c4cccc5[nH]ncc45)nc(N4CCOCC4)c3s2)CC1	2.3

1: COc1cc2c(Oc3ccc(NC(=O)C4(C(=O)Nc5ccc(F)cc5)CC4)cc3F)ccnc2cc1OCCCN1CCOCC1
2: CO[C@@H](C(=O)N1Cc2[nH]nc(NC(=O)c3ccc(N4CCN(C)CC4)cc3)c2C1)c1ccccc1
Endpoint returns whichever of 1 and 2 has the numerically higher ΔTm at 12.5 µM. Respond using the label that marks the chosen record.
2
(2: 1.74 °C, 1: 1.13 °C)
